# Tested on: MCF7 complex spheroid growth, % test/control
# Assay Remarks: Anticancer human tumor MCF7 cell line growth inhibition [Asc];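 also: spheroids exposed to compounds for 7 days; 100% = DMSO vehicle control wells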
# Stated Conditions: second compound 1 µM; first compound 1 µM; hits give low values
I'd be grateful if you could share measured viability, T/C for these entries.
Give bare numbers, in %.

Example cases with answers are listed next.
{"Compound": "COc1c(OCCCN2CCOCC2)ccc2c3n(c(=NC(=O)c4cnc(N)nc4)nc12)CCN3 + CNC(C)C(=O)NC1CN(S(=O)(=O)c2cccc(S(=O)(=O)N3CCC4CCC(C(=O)NC(c5ccccc5)c5ccccc5)N4C(=O)C(NC(=O)C(C)NC)C3)c2)CCC2CCC(C(=O)NC(c3ccccc3)c3ccccc3)N2C1=O", "Measured Metric": "viability, T/C", "Recorded Measurement": 9.11}
{"Compound": "C#Cc1c(F)ccc2cc(O)cc(-c3ncc4c(N5CC6CCC(C5)N6)nc(OCC56CCCN5CC(F)C6)nc4c3F)c12 (stereo not drawn) + CNC(C)C(=O)NC1CN(S(=O)(=O)c2cccc(S(=O)(=O)N3CCC4CCC(C(=O)NC(c5ccccc5)c5ccccc5)N4C(=O)C(NC(=O)C(C)NC)C3)c2)CCC2CCC(C(=O)NC(c3ccccc3)c3ccccc3)N2C1=O", "Measured Metric": "viability, T/C", "Recorded Measurement": 10.6}
{"Compound": "CCN1CCN(Cc2ccc(Nc3ncc(F)c(-c4cc(F)c5nc(C)n(C(C)C)c5c4)n3)nc2)CC1 + Cc1c(S(C)(=O)=O)c(-c2cc(F)cc(N3CCN(c4ccc(NS(=O)(=O)c5ccc(NC(CCN6CCC(C(=O)OCCCP(=O)(O)O)CC6)CSc6ccccc6)c(S(=O)(=O)C(F)(F)F)c5)cc4)CC3)c2)c(-c2ccc(Cl)cc2)n1C(C)C", "Measured Metric": "viability, T/C", "Recorded Measurement": 69.2}
{"Compound": "COc1c(OCCCN2CCOCC2)ccc2c3n(c(=NC(=O)c4cnc(N)nc4)nc12)CCN3 + Cc1c(S(C)(=O)=O)c(-c2cc(F)cc(N3CCN(c4ccc(NS(=O)(=O)c5ccc(NC(CCN6CCC(C(=O)OCCCP(=O)(O)O)CC6)CSc6ccccc6)c(S(=O)(=O)C(F)(F)F)c5)cc4)CC3)c2)c(-c2ccc(Cl)cc2)n1C(C)C", "Measured Metric": "viability, T/C", "Recorded Measurement": 13.1}
{"Compound": "CCN1CCN(Cc2ccc(Nc3ncc(F)c(-c4cc(F)c5nc(C)n(C(C)C)c5c4)n3)nc2)CC1 + CNC(C)C(=O)NC1CN(S(=O)(=O)c2cccc(S(=O)(=O)N3CCC4CCC(C(=O)NC(c5ccccc5)c5ccccc5)N4C(=O)C(NC(=O)C(C)NC)C3)c2)CCC2CCC(C(=O)NC(c3ccccc3)c3ccccc3)N2C1=O", "Measured Metric": "viability, T/C", "Recorded Measurement": 8.18}
{"Compound": "C=C(F)C(=O)N1CCN(c2nc(OCC3CCCN3C)nc3c2CCN(c2cccc4cccc(Cl)c24)C3)CC1CC#N (stereo not drawn) + CNC(C)C(=O)NC1CN(S(=O)(=O)c2cccc(S(=O)(=O)N3CCC4CCC(C(=O)NC(c5ccccc5)c5ccccc5)N4C(=O)C(NC(=O)C(C)NC)C3)c2)CCC2CCC(C(=O)NC(c3ccccc3)c3ccccc3)N2C1=O", "Measured Metric": "viability, T/C", "Recorded Measurement": 7.96}
{"Compound": "O=C(c1ccc(F)c(F)c1Nc1ccc(I)cc1F)N1CC(O)([C@@H]2CCCCN2)C1 + Cc1c(S(C)(=O)=O)c(-c2cc(F)cc(N3CCN(c4ccc(NS(=O)(=O)c5ccc(NC(CCN6CCC(C(=O)OCCCP(=O)(O)O)CC6)CSc6ccccc6)c(S(=O)(=O)C(F)(F)F)c5)cc4)CC3)c2)c(-c2ccc(Cl)cc2)n1C(C)C", "Measured Metric": "viability, T/C", "Recorded Measurement": 74.3}

# next compound below
Ask: Find the recorded viability, T/C belonging to CNC(C)C(=O)NC1CN(S(=O)(=O)c2cccc(S(=O)(=O)N3CCC4CCC(C(=O)NC(c5ccccc5)c5ccccc5)N4C(=O)C(NC(=O)C(C)NC)C3)c2)CCC2CCC(C(=O)NC(c3ccccc3)c3ccccc3)N2C1=O (stereo not drawn) + Cc1c(S(C)(=O)=O)c(-c2cc(F)cc(N3CCN(c4ccc(NS(=O)(=O)c5ccc(NC(CCN6CCC(C(=O)OCCCP(=O)(O)O)CC6)CSc6ccccc6)c(S(=O)(=O)C(F)(F)F)c5)cc4)CC3)c2)c(-c2ccc(Cl)cc2)n1C(C)C and report it.
Reply: 15.9
